Reported IC50 values for a set of molecules
- System: A549, human non-small-cell lung adenocarcinoma cell line
- Method Notes: Antiproliferative assay in vitro, SRB, A549
- Format: cell-based
- Reported Conditions: 72 h exposure, mean ± SD
Observation Type: IC50 (µM)

INSERT INTO measurements (molecule, measured_target, observation_type, units_text, test_value) VALUES
  ('CC1CCC2C(C)C(OC(=O)CCC(=O)NCC(C)(C)CNc3c4c5ccccc5nc-4n(C)c4ccc(Cl)cc34)OC3OC4(C)CCC1C32OO4 (stereo not shown) [Compound 7b]', 'A549, human non-small-cell lung adenocarcinoma cell line', 'IC50', 'µM', 4.55),
  ('N.N.[Cl][Pt][Cl] [cisplatin, reference compound]', 'A549, human non-small-cell lung adenocarcinoma cell line', 'IC50', 'µM', 8.96),
  ('COC(=O)c1ccc2c(c1)c(NCCCNC(=O)CCC(=O)OC1OC3OC4(C)CCC5C(C)CCC(C1C)C35OO4)c1c3ccccc3nc-1n2C (stereo not shown) [Compound 7d]', 'A549, human non-small-cell lung adenocarcinoma cell line', 'IC50', 'µM', 3.66),
  ('COC(=O)c1ccc2c(c1)c(NCC(C)(C)CNC(=O)CCC(=O)OC1OC3OC4(C)CCC5C(C)CCC(C1C)C35OO4)c1c3ccccc3nc-1n2C (stereo not shown) [Compound 7e]', 'A549, human non-small-cell lung adenocarcinoma cell line', 'IC50', 'µM', 5.06);

----------
Listed here: items and their measured pIC50.
- System: A549, human non-small-cell lung adenocarcinoma cell line
- Method Notes: Antiproliferative assay in vitro, SRB, A549
- Type: cell-based
- Reported Conditions: Homo sapiens, A549, 72 h exposure, mean ± SD
pIC50: −log10 of the molar value.
Observation Type: pIC50

INSERT INTO assay_data (molecule, test_value) VALUES
  ('CC1CCC2C(C)C(OC(=O)CCC(=O)NCCCNc3nc4ccccc4c4[nH]c5ccccc5c34)OC3OC4(C)CCC1C32OO4 (stereo not shown)', 5.74),
  ('COC(=O)c1ccc2c(c1)c(NCCCN)c1c3ccccc3nc-1n2C', 6.19),
  ('NCCCNc1nc2ccccc2c2[nH]c3ccccc3c12', 6.76),
  ('CC1CCC2C(C)C(OC(=O)CCC(=O)NCCCNc3c4ccccc4nc4c3[nH]c3ccccc34)OC3OC4(C)CCC1C32OO4 (stereo not shown)', 5.88);
